melting point values by entry

{"molecule": "CC(C)c1cccc(C(C)C)c1NC(=O)CN1CCN(CCCSc2nc3ncccc3o2)CC1", "melting point": "125 to 127 °C"}
{"molecule": "CC(CCCCCCNC(=O)c1ccc(OC(F)(F)F)cc1)NC(=O)c1ccc(OC(F)(F)F)cc1 (stereo unspecified)", "melting point": "137 to 138 °C"}
{"molecule": "CCN1C(=O)NC(c2ccc3ccccc3c2)c2cc3c(cc21)OCO3 (stereo unspecified)", "melting point": "193 to 195 °C"}
{"molecule": "CONS(=O)(=O)c1c(C)nn(C)c1Cl", "melting point": "120 to 122 °C"}
{"molecule": "Cc1ccc(-c2cccc(/C=C/C(=O)Nc3ccc(CN4CCCC(O)C4)cc3)c2)cc1 (stereo unspecified)", "melting point": "132 to 134 °C"}

In the following, a different molecule is considered.
# input Report melting point for N#Cc1ccc(NCCc2[nH]c3c(cnc4cc(Cl)ccc43)c2C=O)cc1 please.
# output 203 to 206 °C

src = a melting point compilation (Tetko et al.; mined from patent text by program, amines drawn as free bases though some values may be those of a salt)
